- experimental_details: Pharmacokinetic study in SD rats after oral administration
- Assay type: in vivo
- conditions: male, Sprague-Dawley (SD), rat, plasma, po, 4.5 mg/kg, n = 7, mean ± SD, non-compartmental, read-out: CLz/F (clearance) (converted)
value_kind: CL/F

Problem: Identify measured CL/F associated with C=CC(=O)Nc1cc(Nc2nccc(-c3cn(C)c4ccccc34)n2)c(OC)cc1N(C)CCN(C)C [Osimertinib]
Solution: ~181 mL/min/kg

###

- experimental_details: Pharmacokinetic study in SD rats after oral administration
- Format: in vivo
- conditions: male, Sprague-Dawley (SD), rat, plasma, po, 4.5 mg/kg, n = 7, mean ± SD, non-compartmental, read-out: tmax
value_kind: tmax

Problem: Identify measured tmax associated with C=CC(=O)Nc1cc(Nc2nccc(-c3cn(C)c4ccccc34)n2)c(OC)cc1N(C)CCN(C)C
Solution: 4.5 h

###

- experimental_details: Pharmacokinetic study in SD rats after oral administration
- Format: in vivo
- conditions: Sprague-Dawley (SD), rat, plasma; male SD rats, oral 4.5 mg/kg, n = 7, mean ± SD, non-compartmental; read-out: Vz/F (distribution volume)
value_kind: Vd/F (L/kg)
Note: unit L/kg is implicit; provide only the numeric part.

Problem: Identify measured Vd/F associated with C=CC(=O)Nc1cc(Nc2nccc(-c3cn(C)c4ccccc34)n2)c(OC)cc1N(C)CCN(C)C [Osimertinib]
Solution: 234

###

- experimental_details: Pharmacokinetic study in SD rats after oral administration
- Assay type: in vivo
- conditions: Sprague-Dawley (SD), rat, plasma; male SD rats, oral 4.5 mg/kg, n = 7, mean ± SD, non-compartmental
value_kind: AUC(0-t) (ng·h/mL)
Note: unit ng·h/mL is implicit; provide only the numeric part.

Problem: Identify measured AUC(0-t) associated with C=CC(=O)Nc1cc(Nc2nccc(-c3cn(C)c4ccccc34)n2)c(OC)cc1N(C)CCN(C)C [Osimertinib]
Solution: 382

###

- experimental_details: Pharmacokinetic study in SD rats after oral administration
- Type: in vivo
- conditions: Sprague-Dawley (SD), rat, plasma; male SD rats, oral 4.5 mg/kg, n = 7, mean ± SD, non-compartmental
value_kind: Cmax (ng/mL)
Note: unit ng/mL is implicit; provide only the numeric part.

Problem: Identify measured Cmax associated with C=CC(=O)Nc1cc(Nc2nccc(-c3cn(C)c4ccccc34)n2)c(OC)cc1N(C)CCN(C)C [Osimertinib]
Solution: 28.5

###

- experimental_details: Pharmacokinetic study in SD rats after oral administration
- Format: in vivo
- conditions: Sprague-Dawley (SD), rat, plasma; male SD rats, oral 4.5 mg/kg, n = 7, mean ± SD, non-compartmental
value_kind: MRT (h)
Note: unit h is implicit; provide only the numeric part.

Problem: Identify measured MRT associated with C=CC(=O)Nc1cc(Nc2nccc(-c3cn(C)c4ccccc34)n2)c(OC)cc1N(C)CCN(C)C
Solution: 14.5

###

- experimental_details: Pharmacokinetic study in SD rats after oral administration
- Assay type: in vivo
- conditions: Sprague-Dawley (SD), rat, plasma; male SD rats, oral 4.5 mg/kg, n = 7, mean ± SD, non-compartmental; read-out: t1/2z (terminal half-life) (converted)
value_kind: half-life (min)
Note: unit min is implicit; provide only the numeric part.

Problem: Identify measured half-life associated with C=CC(=O)Nc1cc(Nc2nccc(-c3cn(C)c4ccccc34)n2)c(OC)cc1N(C)CCN(C)C [Osimertinib]
Solution: 898
